target: human adenosine A2AR (Homo sapiens)
Construct: expressed in transfected cells; host or cells: CHO cells
experimental.protocol: Radioligand binding at human adenosine A2A receptor vs. [3H]MSX-2
run.parameters: human recombinant receptor in CHO cells; read-out: A2AR vs. [³H]MSX-2 Ki ± SEM
quantity.kind: Ki (nM)

[[record]]
compound_structure_string = "CCCn1c(=O)c2c(nc(NCc3ccccc3Cl)n2C)n(C)c1=O"
quantity_kind = "Ki"
unit_label = "nM"
value_measured = 302

[[record]]
compound_structure_string = "C#CCn1c(=O)c2c(nc(NCc3ccccc3Br)n2C)n(C)c1=O"
quantity_kind = "Ki"
unit_label = "nM"
value_measured = 137

[[record]]
compound_structure_string = "CCCn1c(=O)c2c(nc(NCc3ccc(OC)c(OC)c3)n2C)n(C)c1=O"
quantity_kind = "Ki"
unit_label = "nM"
value_measured = 773

[[record]]
compound_structure_string = "C#CCn1c(=O)c2c(nc(NCc3cccc(Cl)c3)n2C)n(C)c1=O"
quantity_kind = "Ki"
unit_label = "nM"
value_measured = 126

[[record]]
compound_structure_string = "C#CCn1c(=O)c2c(nc(NCc3ccccc3F)n2C)n(C)c1=O"
quantity_kind = "Ki"
unit_label = "nM"
value_measured = 287

[[record]]
compound_structure_string = "Cn1c(NCc2ccccc2Cl)nc2c1c(=O)n(Cc1ccccc1)c(=O)n2C"
quantity_kind = "Ki"
unit_label = "nM"
value_measured = 323

[[record]]
compound_structure_string = "CCCn1c(=O)c2c(nc(NCc3ccccc3Br)n2C)n(C)c1=O"
quantity_kind = "Ki"
unit_label = "nM"
value_measured = 361


----------
target: human adenosine A1R (Homo sapiens, UniProt P30542)
Construct: expressed in transfected cells; host or cells: CHO cells
Sequence (P30542 1-326): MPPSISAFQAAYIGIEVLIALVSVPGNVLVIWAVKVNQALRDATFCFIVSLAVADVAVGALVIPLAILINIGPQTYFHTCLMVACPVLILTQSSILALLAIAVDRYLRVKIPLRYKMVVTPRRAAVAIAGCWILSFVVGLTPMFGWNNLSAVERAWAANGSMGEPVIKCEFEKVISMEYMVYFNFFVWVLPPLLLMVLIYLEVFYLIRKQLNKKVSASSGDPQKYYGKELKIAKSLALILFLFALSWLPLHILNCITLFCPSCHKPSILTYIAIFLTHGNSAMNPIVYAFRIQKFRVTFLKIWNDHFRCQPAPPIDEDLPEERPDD
experimental.protocol: Radioligand binding at human adenosine A1 receptor vs. [3H]CCPA
run.parameters: human recombinant receptor in CHO cells; read-out: A1R vs. [³H]CCPA Ki ± SEM
quantity.kind: Ki

[[record]]
compound_structure_string = "CCCn1c(=O)c2c(nc(NCc3cccc(Br)c3)n2C)n(C)c1=O"
value_measured = "340 nM"

[[record]]
compound_structure_string = "CCCn1c(=O)c2c(nc(NCc3c(F)cccc3Cl)n2C)n(C)c1=O"
value_measured = "> 1000 nM"

[[record]]
compound_structure_string = "CCCn1c(=O)c2c(nc(NCc3ccccc3Cl)n2C)n(C)c1=O"
value_measured = "> 1000 nM"

[[record]]
compound_structure_string = "CCCCn1c(=O)c2c(nc(NCc3ccccc3Cl)n2C)n(C)c1=O"
value_measured = "> 1000 nM"

[[record]]
compound_structure_string = "C#CCn1c(=O)c2c(nc(NCc3ccccc3F)n2C)n(C2CC2)c1=O"
value_measured = "166 nM"

[[record]]
compound_structure_string = "C#CCn1c(=O)c2c(nc(NCc3cccc(Br)c3)n2C)n(C)c1=O"
value_measured = "72 nM"

[[record]]
compound_structure_string = "CCCCCCn1c(=O)c2c(nc(NCc3ccccc3Cl)n2C)n(C)c1=O"
value_measured = "> 1000 nM"

[[record]]
compound_structure_string = "CCCn1c(=O)c2c(nc(NCc3ccccc3Br)n2C)n(C)c1=O"
value_measured = "> 1000 nM"

[[record]]
compound_structure_string = "C#CCn1c(=O)c2c(nc(NCc3cccc(OC)c3)n2C)n(C)c1=O"
value_measured = "460 nM"

[[record]]
compound_structure_string = "CCCn1c(=O)c2c(nc(NCc3ccc(OC)c(OC)c3)n2C)n(C)c1=O"
value_measured = "> 1000 nM"

[[record]]
compound_structure_string = "C#CCn1c(=O)c2c(nc(NCc3ccc(OC)c(OC)c3)n2C)n(C)c1=O"
value_measured = "> 1000 nM"

[[record]]
compound_structure_string = "C#CCn1c(=O)c2c(nc(NCc3ccccc3Br)n2C)n(C)c1=O"
value_measured = "> 1000 nM"

[[record]]
compound_structure_string = "C#CCn1c(=O)c2c(nc(NCc3c(F)cccc3Cl)n2C)n(C2CC2)c1=O"
value_measured = "78 nM"

[[record]]
compound_structure_string = "C#CCn1c(=O)c2c(nc(NCc3cccc(Cl)c3)n2C)n(C)c1=O"
value_measured = "334 nM"

[[record]]
compound_structure_string = "Cn1c(NCc2ccccc2Cl)nc2c1c(=O)n(Cc1ccc(Cl)cc1)c(=O)n2C"
value_measured = "> 1000 nM"

[[record]]
compound_structure_string = "C#CCn1c(=O)c2c(nc(NCc3c(F)cccc3Cl)n2C)n(C)c1=O"
value_measured = "130 nM"

[[record]]
compound_structure_string = "Cn1c(NCc2ccccc2Cl)nc2c1c(=O)n(Cc1ccccc1)c(=O)n2C"
value_measured = "> 1000 nM"

[[record]]
compound_structure_string = "CCCn1c(=O)c2c(nc(NCc3cccc(Cl)c3)n2C)n(C)c1=O"
value_measured = "> 1000 nM"


----------
target: human adenosine A2AR (Homo sapiens, UniProt P29274)
Construct: expressed in transfected cells; host or cells: CHO cells
Sequence (P29274 whole entry): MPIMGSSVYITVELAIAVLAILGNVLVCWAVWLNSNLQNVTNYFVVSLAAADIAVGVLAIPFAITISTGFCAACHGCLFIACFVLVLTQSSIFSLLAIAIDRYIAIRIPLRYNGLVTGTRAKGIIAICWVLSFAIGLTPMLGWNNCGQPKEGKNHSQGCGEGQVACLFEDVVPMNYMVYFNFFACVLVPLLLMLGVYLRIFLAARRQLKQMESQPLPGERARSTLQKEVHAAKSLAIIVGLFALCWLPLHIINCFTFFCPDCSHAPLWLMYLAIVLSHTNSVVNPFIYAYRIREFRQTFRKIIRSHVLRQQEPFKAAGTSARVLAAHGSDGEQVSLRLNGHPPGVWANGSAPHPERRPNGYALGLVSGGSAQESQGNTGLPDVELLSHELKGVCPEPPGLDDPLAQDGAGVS
experimental.protocol: Radioligand binding at human adenosine A2A receptor vs. [3H]MSX-2
run.parameters: 1 µM; CHO cells
Experimental: Affinities for adenosine receptors were evaluated in radioligand binding assays as previously described. Human adenosine receptors were stably expressed in CHO cells. […] Data were analyzed using GraphPad PRISM version 5.0 or higher (Graph Pad, San Diego, CA, USA). Ki were calculated using the Cheng–Prusoff equation.
quantity.kind: A2AR vs. [³H]MSX-2 % Inhibition ± SEM at 1 µM

[[record]]
compound = "CCCCCn1c(=O)c2c(nc(NCc3ccccc3Cl)n2C)n(C)c1=O [compound 7]"
value_measured = "38 ± 4%"

[[record]]
compound = "Cn1c(NCc2ccccc2Cl)nc2c1c(=O)n(Cc1ccc(Cl)c(Cl)c1)c(=O)n2C [compound 11]"
value_measured = "23 ± 7%"

[[record]]
compound = "CCCCCCn1c(=O)c2c(nc(NCc3ccccc3Cl)n2C)n(C)c1=O [compound 8]"
value_measured = "9 ± 8%"

[[record]]
compound = "CCCn1c(=O)c2c(nc(NCc3ccccc3F)n2C)n(C)c1=O [compound 13]"
value_measured = "47 ± 2%"


----------
Parameter inhibition at 1 µM: see the listing below.
target: human adenosine A2BR (Homo sapiens, UniProt P29275)
Construct: expressed in transfected cells; host or cells: CHO cells
Sequence (P29275 whole entry): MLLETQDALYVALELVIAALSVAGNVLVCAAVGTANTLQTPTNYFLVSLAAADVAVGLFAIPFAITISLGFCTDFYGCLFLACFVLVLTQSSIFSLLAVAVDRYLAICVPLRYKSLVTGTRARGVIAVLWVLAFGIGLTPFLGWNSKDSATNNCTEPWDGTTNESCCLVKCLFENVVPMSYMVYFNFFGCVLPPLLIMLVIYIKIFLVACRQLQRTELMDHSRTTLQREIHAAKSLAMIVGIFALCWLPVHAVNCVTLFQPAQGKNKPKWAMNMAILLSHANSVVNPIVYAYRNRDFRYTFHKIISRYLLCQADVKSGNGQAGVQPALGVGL
experimental.protocol: Radioligand binding at human adenosine A2B receptor vs. [3H]PSB-603
run.parameters: 1 µM; CHO cells; read-out: A2BR vs. [³H]PSB-603 % Inhibition ± SEM at 1 µM
quantity.kind: inhibition at 1 µM

[[record]]
compound = "C#CCn1c(=O)c2c(nc(NCc3ccccc3Cl)n2C)n(C2CC2)c1=O [compound 27]"
quantity_kind = "inhibition at 1 µM"
value_measured = "9%"

[[record]]
compound = "C#CCn1c(=O)c2c(nc(NCc3ccccc3Cl)n2C)n(C)c1=O [compound 19]"
quantity_kind = "inhibition at 1 µM"
value_measured = "14%"

[[record]]
compound = "C#CCn1c(=O)c2c(nc(NCc3ccccc3F)n2C)n(C2CC2)c1=O [compound 28]"
quantity_kind = "inhibition at 1 µM"
value_measured = "14%"

[[record]]
compound = "C#CCn1c(=O)c2c(nc(NCc3ccccc3F)n2C)n(C)c1=O [compound 21]"
quantity_kind = "inhibition at 1 µM"
value_measured = "41%"

[[record]]
compound = "C#CCn1c(=O)c2c(nc(NCc3cccc(OC)c3)n2C)n(C)c1=O [compound 25]"
quantity_kind = "inhibition at 1 µM"
value_measured = "35%"


----------
Recorded melting point, one value per entry.
quantity.kind: melting point

[[record]]
compound_structure_string = "CCCCCCn1c(=O)c2c(nc(NCc3ccccc3Cl)n2C)n(C)c1=O"
value_measured = "191 to 194 °C"

[[record]]
compound_structure_string = "CCCn1c(=O)c2c(nc(NCc3ccccc3F)n2C)n(C)c1=O"
value_measured = "224 to 226 °C"

[[record]]
compound_structure_string = "C#CCn1c(=O)c2c(nc(NCc3ccccc3F)n2C)n(C)c1=O"
value_measured = "224 to 226 °C"

[[record]]
compound_structure_string = "CCCn1c(=O)c2c(nc(NCc3ccc(OC)c(OC)c3)n2C)n(C)c1=O"
value_measured = "200 to 201 °C"

[[record]]
compound_structure_string = "CCCn1c(=O)c2c(nc(NCc3ccccc3Br)n2C)n(C)c1=O"
value_measured = "206 to 207 °C"

